# systemTested: ABCC1 (Homo sapiens, UniProt P33527)
# Construct: profiled in 60 diverse cancer cell lines (the NCI-60) using real-time RT-PCR; endogenous in cells; host or cells: NCI-60 human cancer cell lines
# assayText: Correlation of ABCC1 expression with drug sensitivity across the NCI-60
# Assay type: cell-based
# appliedConditions: Pearson correlation of ABCC1 expression with sensitivity of the 60 cell lines; 1429 compounds; inverse, p < 0.0001
measuredQuantity: Correlation
Lab note: jot down the number only; don't add units.

In: Form: Entry = COC(=O)CCC(=O)NC1=C(Nc2ccccc2)C(=O)c2ccccc2C1=O | System = ABCC1 (Homo sapiens, UniProt P33527) | Correlation = ____
Out: −0.4326

In: Proceed to CC1C(c2ccc3c(c2)OCO3)c2cc3c(cc2OC1N1CCOCC1)OCO3 (centres unmarked)
Out: −0.3675

In: Also CCOC(=O)CNC(=O)NC12CC3CC(CC(C3)C1)C2 , if possible.
Out: −0.4950

In: Same lookup for C=C(c1ccccc1)[C@@]1(O)CC[C@@H]1N(CC#N)Cc1ccccc1 , please.
Out: −0.5087

In: Record: Cc1oc2c(c1C(=O)c1ccccc1)C(=O)c1ccccc1C2=O
Out: −0.4324

---

# systemTested: UniProtKB P08183
# assayText: Correlation of ABCB1 expression with drug sensitivity across the NCI-60
I'd be grateful if you could share measured Correlation for these entries.

In: Quick check: Correlation of [Se]=P(c1ccccc1)(c1ccccc1)c1ccc(C(c2ccccc2)=P(c2ccccc2)(c2ccccc2)c2ccccc2)cc1 [NSC 676864] ?
Out: −0.6546

In: Could you do the same for COc1cc2cc3c4cc(OC)c(OC)cc4cc[n+]3c(C)c2cc1OC [NSC 156625, Coralyne] , please?
Out: −0.4657

In: Also OCCO[P+]1(OCCO)n2c3ccc2C(c2ccccc2)=C2C=CC(=N2)C(c2ccccc2)=c2ccc(n21)=C(c1ccccc1)C1=NC(=C3c2ccccc2)C=C1 [NSC 682066] , if possible.
Out: −0.7985

In: Would you kindly repeat that for CCC(C)SC1SCC2C(=O)N(C)C3(CC3C)C(=O)OCC(NC(=O)c3nc4ccccc4cc3O)C(=O)NC(C)C(=O)N(C)C1C(=O)N(C)C1(CC1C)C(=O)OCC(NC(=O)c1nc3ccccc3cc1O)C(=O)NC(C)C(=O)N2C (stereo not drawn) [NSC 630678] ?
Out: −0.7029

In: Subsequent entry: C[n+]1c2ccccc2n2c3ccccc3c(NCCCn3ccnc3)c(C#N)c21.Cc1ccc(S(=O)(=O)[O-])cc1 [NSC694268]
Out: −0.5914

In: // same read-out, input: COc1cc2c(c(O)c1O)-c1ccc(OC)c(=O)cc1C(NC(C)=O)CC2 (stereo not drawn) [NSC 354975]
Out: −0.6043

---

I'd be grateful if you could share measured Correlation for these entries.
# systemTested: ABCA12 (Homo sapiens, UniProt Q86UK0)
# Construct: profiled in 60 diverse cancer cell lines (the NCI-60) using real-time RT-PCR; endogenous in cells; host or cells: NCI-60 human cancer cell lines
# Sequence (Q86UK0 whole entry): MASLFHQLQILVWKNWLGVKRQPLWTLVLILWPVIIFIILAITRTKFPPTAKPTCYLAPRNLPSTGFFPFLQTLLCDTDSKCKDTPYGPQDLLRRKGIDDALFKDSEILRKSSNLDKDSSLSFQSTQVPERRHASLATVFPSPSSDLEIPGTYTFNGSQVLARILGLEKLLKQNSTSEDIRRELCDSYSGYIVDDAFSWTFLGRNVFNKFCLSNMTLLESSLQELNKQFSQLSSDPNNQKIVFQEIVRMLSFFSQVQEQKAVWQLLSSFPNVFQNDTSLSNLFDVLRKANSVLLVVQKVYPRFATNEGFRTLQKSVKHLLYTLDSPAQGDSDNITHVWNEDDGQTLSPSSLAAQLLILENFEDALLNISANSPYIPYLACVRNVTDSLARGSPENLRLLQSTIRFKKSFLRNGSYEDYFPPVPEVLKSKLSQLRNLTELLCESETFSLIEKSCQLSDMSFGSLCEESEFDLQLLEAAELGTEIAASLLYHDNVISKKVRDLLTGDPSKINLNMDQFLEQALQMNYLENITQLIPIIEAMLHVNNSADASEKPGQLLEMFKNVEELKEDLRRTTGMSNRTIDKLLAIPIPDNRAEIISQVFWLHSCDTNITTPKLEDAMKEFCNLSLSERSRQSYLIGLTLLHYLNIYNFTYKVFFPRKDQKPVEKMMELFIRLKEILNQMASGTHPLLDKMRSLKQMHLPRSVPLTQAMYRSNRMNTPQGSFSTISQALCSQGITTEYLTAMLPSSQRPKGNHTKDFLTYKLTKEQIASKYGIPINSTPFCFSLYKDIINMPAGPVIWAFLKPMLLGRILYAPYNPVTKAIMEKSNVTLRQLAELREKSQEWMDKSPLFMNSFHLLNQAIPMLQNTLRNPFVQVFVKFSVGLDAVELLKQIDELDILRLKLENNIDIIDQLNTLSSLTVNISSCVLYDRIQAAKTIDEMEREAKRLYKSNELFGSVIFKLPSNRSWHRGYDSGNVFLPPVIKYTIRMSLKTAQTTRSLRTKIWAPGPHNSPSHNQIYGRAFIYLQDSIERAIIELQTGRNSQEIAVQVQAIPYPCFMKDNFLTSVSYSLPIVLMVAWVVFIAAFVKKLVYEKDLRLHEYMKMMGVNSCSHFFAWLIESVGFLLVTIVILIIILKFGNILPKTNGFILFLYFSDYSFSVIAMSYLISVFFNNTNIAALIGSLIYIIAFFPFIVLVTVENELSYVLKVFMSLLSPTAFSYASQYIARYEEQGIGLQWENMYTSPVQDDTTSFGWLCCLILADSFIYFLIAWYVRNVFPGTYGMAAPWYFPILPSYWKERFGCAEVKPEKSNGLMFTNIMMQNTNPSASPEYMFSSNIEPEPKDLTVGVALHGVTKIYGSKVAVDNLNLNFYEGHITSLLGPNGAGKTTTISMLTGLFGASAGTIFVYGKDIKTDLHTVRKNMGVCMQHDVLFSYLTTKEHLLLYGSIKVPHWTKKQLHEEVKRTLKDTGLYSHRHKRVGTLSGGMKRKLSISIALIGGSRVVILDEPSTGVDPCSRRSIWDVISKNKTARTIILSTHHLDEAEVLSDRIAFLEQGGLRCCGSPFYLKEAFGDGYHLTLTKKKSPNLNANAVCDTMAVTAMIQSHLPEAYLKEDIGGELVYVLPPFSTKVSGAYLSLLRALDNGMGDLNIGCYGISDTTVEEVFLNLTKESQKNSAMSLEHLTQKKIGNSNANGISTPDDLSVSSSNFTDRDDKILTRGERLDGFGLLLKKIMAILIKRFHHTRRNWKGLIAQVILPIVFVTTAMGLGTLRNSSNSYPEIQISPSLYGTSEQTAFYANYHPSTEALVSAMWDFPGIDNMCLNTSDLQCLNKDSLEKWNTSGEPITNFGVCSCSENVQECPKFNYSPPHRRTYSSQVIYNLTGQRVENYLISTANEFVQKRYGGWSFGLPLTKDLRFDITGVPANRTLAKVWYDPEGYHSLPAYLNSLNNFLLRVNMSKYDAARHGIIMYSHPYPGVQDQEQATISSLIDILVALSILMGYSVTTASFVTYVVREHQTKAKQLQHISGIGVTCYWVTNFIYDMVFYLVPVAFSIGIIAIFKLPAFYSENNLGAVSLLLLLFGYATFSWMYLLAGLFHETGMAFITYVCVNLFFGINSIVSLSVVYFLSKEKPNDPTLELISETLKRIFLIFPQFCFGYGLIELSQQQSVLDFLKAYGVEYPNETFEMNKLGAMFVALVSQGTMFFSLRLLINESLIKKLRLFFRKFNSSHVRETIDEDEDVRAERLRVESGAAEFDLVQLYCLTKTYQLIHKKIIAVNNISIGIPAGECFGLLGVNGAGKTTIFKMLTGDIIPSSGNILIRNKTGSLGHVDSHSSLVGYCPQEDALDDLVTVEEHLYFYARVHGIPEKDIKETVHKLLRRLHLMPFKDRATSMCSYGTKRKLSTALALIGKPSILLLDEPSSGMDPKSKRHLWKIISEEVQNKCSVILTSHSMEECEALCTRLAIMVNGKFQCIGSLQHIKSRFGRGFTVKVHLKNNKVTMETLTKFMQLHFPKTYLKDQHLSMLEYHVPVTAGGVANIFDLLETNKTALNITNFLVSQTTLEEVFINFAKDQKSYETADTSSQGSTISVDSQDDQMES
# assayText: Correlation of ABCA12 expression with drug sensitivity across the NCI-60
# Type: cell-based
# appliedConditions: Pearson correlation of ABCA12 expression with sensitivity of the 60 cell lines; 1429 compounds; inverse, p < 0.0001
Lab note: jot the number down without any unit.

In: Which value of Correlation has been reported for COC(=O)c1ccccc1NC(=O)C(=O)CC(=O)c1ccccc1NC1=CC(=O)C(=O)c2ccccc21 [NSC 641240] in the records?
Out: −0.5165

In: Next compound: COc1cc2c(cc1O)CC[C@@H]1[C@@H]2CC[C@]2(C)[C@@H](O)CC[C@@H]12 [NSC 659853]
Out: −0.5016

In: Do the same for COC1=C(OC)C(=O)c2cc(C)c(=O)c(C)cc2C1=O [NSC 649666] please
Out: −0.3757

In: Queued: O=C1C=C(Nc2ccccc2C(=O)CC(=O)C(=O)Nc2cccc(C(F)(F)F)c2)c2ccccc2C1=O [NSC 644751]
Out: −0.5643

---

# systemTested: ABCB1 (Homo sapiens)
# assayText: Correlation of ABCB1 expression with drug sensitivity across the NCI-60
Kindly supply the reported Pearson's Correlation Coeff values for the records listed here.
Returns: the value as a bare number; no unit string appended.

In: Give the measured Pearson's Correlation Coeff of COc1ccc2oc(S(=O)(=O)N3CC(CCl)c4ccc(N)cc43)cc2c1 (centres unmarked) .
Out: 0.2104

In: Item: Nc1ncnc2c1nc(Cl)n2[C@@H]1O[C@@H]2COP(=O)(O)O[C@H]2[C@H]1O
Out: 0.2759

In: Another compound: CCCOc1cc2c(cc1O)CC[C@@H]1[C@@H]2CC[C@]2(C)[C@@H](O)CC[C@@H]12
Out: 0.2610

In: Then what about the compound C=C1C(=O)O[C@@H]2C[C@H]1CC[C@]1(C)O[C@H]1CC/C(C)=C/CC[C@]2(C)O ?
Out: 0.3654

In: Entry to check: CC(C)(C)N1CC1CNC(=O)C(=O)NCC1CN1C(C)(C)C (centres unmarked)
Out: 0.3398

In: Ok, now CC1=C(N2CC2)C(=O)C(C)=C(N2CC2)C1=O
Out: 0.3262

In: COc1ccc(-c2oc3cc(O)c(OC)c(O)c3c(=O)c2O)cc1 ?
Out: 0.2632

In: Note, next up: CCOC(=O)/C=C(\C(=O)OCC)n1cc(C)c(=O)n(Cc2cnnn2CCCCOC(C)=O)c1=O
Out: 0.2442

In: Okay, and CC(C)=CCC[C@@H](C)C1=C(O)C(=O)C(C)=C(NC(C)c2ccccc2)C1=O (some centres unmarked) ?
Out: 0.3828

In: Now consider CCc1nc(N)nc(N)c1-c1ccc(N(C)Cc2ccccc2)c([N+](=O)[O-])c1 and answer again.
Out: 0.3180

In: Similarly, CCc1nc(N)nc(N)c1-c1ccc(Cl)c(N=[N+]=[N-])c1 ?
Out: 0.3098

In: Consider next the compound CC(C)=CCC[C@@H](C)C1=C(O)C(Nc2ccccc2)=C(C)C(=O)C1=O in the same way.
Out: 0.4854

In: Further, for CC(C)=CCC[C@@H](C)C1=C(Nc2ccccc2Cl)C(O)=C(C)C(=O)C1=O ?
Out: 0.3551

In: How about this compound: C=C1C(=O)O[C@H]2[C@@H](O)[C@H](C)CCC/C(C)=C/CC[C@@]3(C)O[C@@H]3C[C@@H]12
Out: 0.2823

In: Now try Cc1ccc2c(c1)-c1c(C#N)c(N)nc(-c3ccc(Cl)cc3)c1CCS2(=O)=O .
Out: 0.2102

In: Request: CCc1nc(N)nc(N)c1-c1ccc(NCCc2ccccc2)c([N+](=O)[O-])c1
Out: 0.3279

In: Also need CN(O)C(=O)c1ccc(OCc2cccc(Cl)c2)cc1 , thanks.
Out: 0.4149

---

# systemTested: ABCB1 (Homo sapiens, UniProt P08183)
# Sequence (P08183 whole entry): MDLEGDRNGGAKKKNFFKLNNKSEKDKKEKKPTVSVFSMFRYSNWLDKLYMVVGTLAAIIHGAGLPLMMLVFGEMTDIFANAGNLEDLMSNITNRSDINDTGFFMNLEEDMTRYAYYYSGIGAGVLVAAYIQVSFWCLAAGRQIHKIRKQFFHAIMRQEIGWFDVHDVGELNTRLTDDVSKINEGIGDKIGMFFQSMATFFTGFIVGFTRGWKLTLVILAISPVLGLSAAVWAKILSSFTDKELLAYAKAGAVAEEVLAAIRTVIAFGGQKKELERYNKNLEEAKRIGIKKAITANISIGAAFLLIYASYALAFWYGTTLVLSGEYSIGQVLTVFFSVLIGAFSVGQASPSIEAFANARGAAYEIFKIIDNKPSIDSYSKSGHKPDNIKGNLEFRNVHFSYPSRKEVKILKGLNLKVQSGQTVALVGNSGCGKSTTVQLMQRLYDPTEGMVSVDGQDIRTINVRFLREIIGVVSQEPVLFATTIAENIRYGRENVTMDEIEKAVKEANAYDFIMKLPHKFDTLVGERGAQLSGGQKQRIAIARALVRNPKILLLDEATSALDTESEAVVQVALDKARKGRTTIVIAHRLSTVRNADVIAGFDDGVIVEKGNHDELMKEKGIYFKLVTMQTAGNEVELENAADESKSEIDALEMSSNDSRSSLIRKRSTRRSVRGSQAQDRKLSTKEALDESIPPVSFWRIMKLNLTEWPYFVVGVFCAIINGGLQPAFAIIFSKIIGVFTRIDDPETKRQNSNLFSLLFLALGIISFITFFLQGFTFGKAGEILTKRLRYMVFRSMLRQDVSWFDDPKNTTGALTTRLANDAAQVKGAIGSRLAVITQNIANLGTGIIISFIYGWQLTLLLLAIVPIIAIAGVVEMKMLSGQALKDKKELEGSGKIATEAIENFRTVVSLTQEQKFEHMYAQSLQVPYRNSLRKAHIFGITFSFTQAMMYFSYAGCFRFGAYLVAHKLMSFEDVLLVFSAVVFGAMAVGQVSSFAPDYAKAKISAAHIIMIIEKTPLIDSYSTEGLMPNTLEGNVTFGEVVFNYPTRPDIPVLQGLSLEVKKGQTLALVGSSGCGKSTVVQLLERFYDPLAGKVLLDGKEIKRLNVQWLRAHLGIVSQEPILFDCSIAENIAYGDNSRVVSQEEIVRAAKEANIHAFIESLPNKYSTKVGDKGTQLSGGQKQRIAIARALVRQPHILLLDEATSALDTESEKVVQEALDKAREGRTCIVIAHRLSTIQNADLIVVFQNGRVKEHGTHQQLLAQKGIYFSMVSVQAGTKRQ
# assayText: Correlation of ABCB1 expression with drug sensitivity across the NCI-60
Classify: satisfied when Correlation of antiproliferative activity with ABCB1 expression is strictly less than 0.4; not satisfied when Correlation of antiproliferative activity with ABCB1 expression is not.

In: Field: below-cutoff. Rule: recorded Correlation of antiproliferative activity with ABCB1 expression strictly less than 0.4. Subject: COc1c(C)c(C/C=C(\C)CCCCO[Si](c2ccccc2)(c2ccccc2)C(C)(C)C)c(OC)c(OC)c1OC
Out: satisfied

In: Note, next up: CC(C)=CCC[C@@H](C)C1=C(N)C(=O)C(C)=C(O)C1=O
Out: not satisfied

In: Follow-up entry: O=C(CCc1nnc2s/c(=C\c3ccc4c(c3)OCO4)c(=O)n12)Nc1cc(Cl)ccc1Cl
Out: satisfied

In: Another: COc1ccc2nc3c(C(=O)NCCN(C)C)cccc3cc2c1.Cl
Out: satisfied

---

# systemTested: ABCA3 (Homo sapiens)
# Construct: profiled in 60 diverse cancer cell lines (the NCI-60) using real-time RT-PCR; endogenous in cells; host or cells: NCI-60 human cancer cell lines
# assayText: Correlation of ABCA3 expression with drug sensitivity across the NCI-60
# Format: cell-based
# appliedConditions: Pearson correlation of ABCA3 expression with sensitivity of the 60 cell lines; 1429 compounds; inverse, p < 0.0001
We use -0.4 as the dividing line for Correlation: on or above the line is rule met, below is rule not met.

In: Would you say CC(=O)O[C@@]12CO[C@@H]1CC(O)[C@@]1(C)C(=O)[C@H](O)C3=C(C)C(O)C[C@@](O)(C(OC(=O)c4ccccc4)C12)C3(C)C (stereo partly drawn) [NSC 656178] shows Correlation at minimum -0.4?
Out: rule not met

In: Now consider COc1cc2c(c(OC(C)=O)c1OC(C)=O)-c1ccc(SC)c(=O)cc1C(NC(C)=O)CC2 (stereo not drawn) [NSC 374979] .
Out: rule not met

In: Also, CC[C@]1(O)C[C@@H]2CN(CCc3c([nH]c4ccccc34)[C@@](C(=O)OC)(c3cc4c(cc3OC)N(C)[C@H]3[C@@](O)(C(=O)OC)[C@H](OC(C)=O)[C@]5(CC)C=CCN6CC[C@]43[C@@H]65)C2)C1.O=S(=O)(O)O [NSC 49842] please.
Out: rule met

In: Do the same for COc1cc(C(=O)N[C@H]2CCc3cc(OC)c(OC)c(OC)c3-c3ccc(OC)c(=O)cc32)cc(OC)c1OC [NSC 355256] please
Out: rule met
